- System: total serum cholesterol in beagle dogs
- method_summary: Lowering activity of blood cholesterol in beagle dogs
- Format: in vivo, beagle dog
- assay_setup: Canis lupus familiaris, po, 120 h, beagle dogs, 100 mg/kg/day, oral twice per day, 5 days; read-out: Lowering rate of total serum cholesterol
readout: inhibition in vivo at 100 mg/kg/day (%)
Number only, in %; omit the unit.

[
  {
    "compound": "CCCCCCOC(=O)CC(O)CC(O)CCC1C(C)C=CC2=CCCC(OC(=O)C(C)CC)C21 (stereo not drawn) [n-hexyl, Hexyl ML-236B carboxylate]",
    "units_text": "%",
    "experimental_value": 29
  }
]

Just so you know, measured inhibition in vivo at 100 mg/kg/day for CCCCOC(=O)CC(O)CC(O)CCC1C(C)C=CC2=CCCC(OC(=O)C(C)CC)C21 (stereo not drawn) [n-butyl, n-Butyl ML-236B carboxylate] came out at 46

Just so you know, measured inhibition in vivo at 100 mg/kg/day for CCC(C)C(=O)OC1CCC=C2C=CC(C)C(CCC(O)CC(O)CC(=O)OCc3ccc(C)cc3)C21 (stereo not drawn) [4-methylbenzyl, 4-Methylbenzyl ML-236B carboxylate] came out at 41

// provenance: patent US4137322A
